Every entry's value here was drawn from paper PMC6150229.

# MEASUREMENT_DESCRIPTION: in vivo
# MEASUREMENT_SETUP: male, Sprague-Dawley, rat, po, 8 g/kg, t1/2, sham group (SG) rats, oral administration of QSKL, plasma, mean ± SD, n = 6

| MOLECULE | half-life / h |
| --- | --- |
| O=C(/C=C/c1ccc(O[C@@H]2O[C@H](CO)[C@@H](O)[C@H](O)[C@H]2O)cc1)c1ccc(O)cc1O | 6.26 |
| COCC12CN(C)C3C4C(OC)C1C3(C(OC)CC2O)C1CC2(O)C(OC)C(O)C4(O)C1C2OC(=O)c1ccccc1 (stereo not shown) | 13 |
| COCC12CCC(OC)C34C5CC6(O)C(OC)C(O)C(O)(C5C6OC(=O)c5ccccc5)C(C(OC)C13)C4N(C)C2 (stereo not shown) | 15.6 |
| COC[C@@]12CC[C@H](OC)[C@]34C(C([C@H](OC)[C@H]13)[C@]1(OC(C)=O)[C@H]3[C@@H](OC(=O)c5ccccc5)[C@](O)(C[C@H]34)[C@@H](OC)[C@@H]1O)N(C)C2 | 8.67 |

* * *

AUC(0-inf) for assorted compounds
# MEASUREMENT_DESCRIPTION: in vivo
# MEASUREMENT_SETUP: male, Sprague-Dawley, rat, po, 8 g/kg, AUC0–∞

| COMPOUND | UNITS_TEXT | AUC(0-inf) |
| --- | --- | --- |
| Cc1cccc2c3c(ccc12)C1=C(C(=O)C3=O)[C@@H](C)CO1 [dihydrotanshinone I] | ng·h/mL | 4.47 |
| O=C1C[C@@H](c2ccc(O[C@@H]3O[C@H](CO)[C@@H](O)[C@H](O)[C@H]3O)cc2)Oc2cc(O)ccc21 | ng·h/mL | 7.37 |
| O=c1cc(-c2ccc(O)c(O)c2)oc2cc(O[C@@H]3O[C@H](CO)[C@@H](O)[C@H](O)[C@H]3O)cc(O)c12 [luteoloside] | ng·h/mL | 1.06 |
| C=C[C@H]1[C@H](O[C@@H]2O[C@H](CO)[C@@H](O)[C@H](O)[C@H]2O)OC=C2C(=O)OCC[C@H]21 [sweroside] | ng·h/mL | 294 |
| O=C1C[C@@H](c2ccc(O)cc2)Oc2cc(O)ccc21 | ng·h/mL | 2.22 |
| C[C@H]1COC2=C1C(=O)C(=O)c1c2ccc2c1CCCC2(C)C | ng·h/mL | 12 |
| Cc1coc2c1C(=O)C(=O)c1c-2ccc2c(C)cccc12 | ng·h/mL | 5.58 |

* * *

# MEASUREMENT_DESCRIPTION: Pharmacokinetic study in sham and myocardial ischemia model rats after a single oral dose of QSKL (UHPLC-psMS/MS of plasma, non-compartmental analysis)
# MEASUREMENT_SETUP: male, Sprague-Dawley, rat, plasma, po, 8 g/kg, Cmax, model group (MG, myocardial ischemia) rats, oral administration of QSKL, plasma, mean ± SD, n = 6

| COMPOUND | Cmax / ng/mL |
| --- | --- |
| COc1ccc(-c2coc3cc(O)ccc3c2=O)cc1O [calycosin] | 0.347 |
| C[C@]1(OC(=O)/C=C/c2ccccc2)C[C@@H](O)[C@]2(O)C=CO[C@@H](O[C@@H]3O[C@H](CO)[C@@H](O)[C@H](O)[C@H]3O)[C@@H]21 [harpagoside] | 1.02 |
| O=C(/C=C/c1ccc(O)cc1)c1ccc(O)cc1O [isoliquiritigenin] | 0.401 |
| COc1ccc(-c2coc3cc(O)ccc3c2=O)cc1 [formononetin] | 0.47 |
| CC1(C)[C@@H](O[C@H]2O[C@H](C(=O)O)[C@@H](O)[C@H](O)[C@H]2O[C@@H]2O[C@H](C(=O)O)[C@@H](O)[C@H](O)[C@H]2O)CC[C@]2(C)[C@H]3C(=O)C=C4[C@@H]5C[C@@](C)(C(=O)O)CC[C@]5(C)CC[C@@]4(C)[C@]3(C)CC[C@@H]12 [glycyrrhizic acid] | 8.87 |
| Cc1coc2c1C(=O)C(=O)c1c-2ccc2c1CCCC2(C)C [tanshinone IIA] | 0.349 |
| COC(=O)C1=CO[C@@H](O[C@@H]2O[C@H](CO)[C@@H](O)[C@H](O)[C@H]2O)[C@@H]2[C@H](C)O[C@@H](O)C[C@H]12 [morroniside] | 4.21 |
